target_entity: Sigma non-opioid intracellular receptor 1 (Homo sapiens) (UniProt Q99720)
Sequence (Q99720 whole entry): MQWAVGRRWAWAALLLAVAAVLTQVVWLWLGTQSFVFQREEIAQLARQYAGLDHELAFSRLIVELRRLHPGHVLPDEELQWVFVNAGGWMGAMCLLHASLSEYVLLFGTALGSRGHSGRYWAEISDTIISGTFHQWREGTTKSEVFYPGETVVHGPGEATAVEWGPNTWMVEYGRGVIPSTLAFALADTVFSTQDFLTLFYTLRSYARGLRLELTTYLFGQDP
run_description: Activity at human sigma 1 receptor transfected in human MCF7 cells assessed as Ca2+ mobilization by fluorescence analysis
Format: cell-based
Active and inactive are the calls of the source. The calls are words filed in the database; no cut-off is given here.
quantity_measured: Activity

[[record]]
compound = "COc1ccc2c(c1)CCCC2CCCCN1[C@H](C)CCC[C@@H]1C (some centres undefined)"
measured_value = "inactive"

[[record]]
compound = "COc1ccc2c(CCCN3[C@H](C)CCC[C@@H]3C)cccc2c1"
measured_value = "inactive"

[[record]]
compound = "COc1ccc2c(CCCCN3[C@H](C)CCC[C@@H]3C)cccc2c1.Cl"
measured_value = "inactive"

[[record]]
compound = "COc1ccc2c(c1)CCCC2CCCN1[C@H](C)CCC[C@@H]1C (some centres undefined)"
measured_value = "inactive"

